Sourced from PubChem BioAssay

# TARGET UNDER TEST: Voltage-gated potassium channel subunit beta-2 (Rattus norvegicus) (UniProt P62483)
# Sequence (P62483 whole entry, looked up): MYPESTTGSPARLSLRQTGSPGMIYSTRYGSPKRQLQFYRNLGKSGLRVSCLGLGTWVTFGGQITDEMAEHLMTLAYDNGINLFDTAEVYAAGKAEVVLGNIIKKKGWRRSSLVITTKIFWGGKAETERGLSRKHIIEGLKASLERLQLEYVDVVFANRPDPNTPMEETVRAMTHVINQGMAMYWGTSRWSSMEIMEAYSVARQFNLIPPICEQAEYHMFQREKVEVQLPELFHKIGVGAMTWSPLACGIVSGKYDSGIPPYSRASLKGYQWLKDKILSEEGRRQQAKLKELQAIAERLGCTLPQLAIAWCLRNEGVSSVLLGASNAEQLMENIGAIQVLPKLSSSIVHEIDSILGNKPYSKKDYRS
# METHOD SUMMARY: enhancers of rat Kvbeta2 NADPH turnover – biochemical, NADPH fluorescence, primary screen (AID 623);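 also: fluorescence intensity change per second fitted from 20 to 320 s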
# RUN CONDITIONS: Recombinant KvBeta, NADPH fluorescence decrease slope, 10 min; at 10 µM; hits give low values
METRIC: NADPH fluorescence slope
I only need the number, thanks.

Answered examples (2):
Cc1c(Cl)cnc(NC(=O)COC(=O)C(NC(=O)c2ccco2)C(C)C)c1Cl (configuration not stated) = -3.9e-05
CCc1c(C)nc2ncnn2c1NCCc1ccc(OC)c(OC)c1 = -7.8e-05

**Query** Item CCOCCCNC(=O)CS(=O)(=O)Cc1nc(-c2cccc(OC)c2)oc1C has what recorded NADPH fluorescence slope?
**Result** 4.7e-07

**Query** Item CCCn1cnc2c(cnn2-c2ccc(F)cc2)c1=O has what recorded NADPH fluorescence slope?
**Result** 1.4e-05

**Query** Item C=CCN=C1SCC(=O)N1S(=O)(=O)c1ccc(C)cc1 has what recorded NADPH fluorescence slope?
**Result** -6.1e-05

**Query** Item C/C(=N\O)C(=O)NCc1ccccn1 has what recorded NADPH fluorescence slope?
**Result** 1.8e-05

**Query** Item COc1cccc(NC(=O)N[C@@H](Cc2ccccc2)C(=O)O)c1 has what recorded NADPH fluorescence slope?
**Result** -3.6e-05

----------
Below: a set of entries, each annotated with reported inhibition.
# METHOD SUMMARY: inhibitors of TNFa-induced NFkB p65 translocation, primary screen, imaging, HUVEC, MLSMR starter and 10KST1 sets (AID 438);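 also: compound added about 3h40 before a 20 min TNFalpha stimulation; signal is the nuclear over cytoplasmic p65 intensity ratio per well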
# RUN CONDITIONS: HUVEC TNFa-induced p65 nuclear translocation; at 2 µM, hits give high values, 0% TNFa-plus-vehicle, 100% no-TNFa wells
Provide only the numeric value, understood in %.

**Query** Item Cc1ccccc1CSc1nnc(C)c(=O)[nH]1 has what recorded inhibition?
**Result** 1.1

**Query** Item Cc1ccc(NC(=O)CN2CC(C)SC2=NC2CCCCC2)cc1 (stereo not given) has what recorded inhibition?
**Result** 10.1

**Query** Item CCn1c(=O)c2cc(S(=O)(=O)NCc3ccccc3)ccc2n(CC)c1=O has what recorded inhibition?
**Result** -2.3

**Query** Item COc1ccc(NC(=O)c2cc(C3CC3)on2)c(OC)c1 has what recorded inhibition?
**Result** -2.9

----------
Below: a set of entries, each annotated with reported inhibition.
# METHOD SUMMARY: TLR3 IRF3 reporter activation blockers – cell-based, poly I:C stimulus, luciferase, 10K MLSCN set, primary screen (AID 602277)
# RUN CONDITIONS: HEK293-TLR3 RL24 IRF3 luciferase reporter, at 10 µM, hits give high values
Provide only the numeric value, understood in %.

Answered examples (5):
COc1cc2c(cc1NC(=O)CN1CCN(S(=O)(=O)c3ccc(F)cc3)CC1)oc1ccccc12 = 30.3
COc1ccc(C/C(N)=N/n2cnnc2)cc1Cl = 35.6
COc1ccc(N(CC(=O)Nc2ccc(F)c(Cl)c2)S(=O)(=O)c2c(C)noc2C)cc1 = 21.7
Cc1oc(-c2ccccc2F)nc1CS(=O)(=O)CC(=O)N1CCN(Cc2ccccc2)CC1 = -4.63
CC1CCN(Cc2nc3c(c(=O)n(C)c(=O)n3C)n2Cc2cccc3ccccc23)CC1 = 41.7

**Query** Item CCOC(=O)c1c(C)[nH]c(C)c1C(=O)COc1ccc(NC(=O)c2ccco2)cc1 has what recorded inhibition?
**Result** 20.5

**Query** Item CCCN1CC23C=CC(O2)C(C(=O)O)C3C1=O (stereo not given) has what recorded inhibition?
**Result** 15.9

**Query** Item CC(C)n1nc(C(=O)Nc2nc3ccc(S(C)(=O)=O)cc3s2)c2ccccc2c1=O has what recorded inhibition?
**Result** 29.9

**Query** Item CC(=O)c1ccc(OCC(O)CN2CCN(CCO)CC2)cc1 (stereo not given) has what recorded inhibition?
**Result** 40.3

**Query** Item Oc1ccc(N2CCN(C(c3ccncc3)c3nnnn3C3CCCC3)CC2)cc1 (stereo not given) has what recorded inhibition?
**Result** 26.3

----------
# METHOD SUMMARY: TLR3 IRF3 reporter activation blockers – cell-based, poly I:C stimulus, luciferase, 10K MLSCN set, primary screen (AID 602277)
# RUN CONDITIONS: HEK293-TLR3 RL24 IRF3 luciferase reporter, at 10 µM, hits give high values
inhibition class ranges: lower level: < 10%; middle level: ≥ 10% and < 20%; upper level: ≥ 20%

CS(=O)(=O)c1ccc2nc(NC(=O)c3cccs3)sc2c1 = lower level
Nn1c(SCC(=O)NC2CCCCC2)nnc1-c1ccc(Cl)cc1 = middle level
CCOC(=O)CN1CC23C=CC(O2)C(C(=O)NC2CCCC2)C3C1=O (stereo not drawn) = upper level
CC(C)C1N=C2c3ccccc3N=C(SCc3cc(=O)n4ccccc4n3)N2C1=O (stereo not drawn) = lower level
COc1cc(C(=O)Nc2cccc(-c3nncn3C)c2)cc(OC)c1OC = middle level
CCOc1ccc2[nH]c(=O)c(CN(Cc3nnnn3CCc3ccccc3)CC3CCCO3)cc2c1 (stereo not drawn) = middle level
CCOC(=O)c1[nH]c(CSc2nnc(-c3ccc(OC)cc3)o2)c(C(=O)OCC)c1C = upper level
COc1ccc(CN(C(=O)c2cccs2)c2nccs2)cc1OC = upper level
Cc1[nH]c2ccccc2c(=O)c1CN1CCCCC1 = upper level
CCOC(=O)COc1ccc(C2NC(C(=O)O)CS2)cc1 (stereo not drawn) = middle level

**Query** Which bin, given its inhibition, does CCOC(=O)c1ccccc1NC(=O)CSc1nnc(COc2ccccc2C)n1C occupy?
**Result** upper level

**Query** Which bin, given its inhibition, does O=S(=O)(c1ccc2ccccc2c1)N1CCCCC1 occupy?
**Result** upper level

**Query** Which bin, given its inhibition, does O=C(Cn1ncc2c1-c1ccccc1OC2)N1CCN(c2ccccn2)CC1 occupy?
**Result** upper level

**Query** Which bin, given its inhibition, does CCN1CCN(C(=O)Cn2ncc3ccsc3c2=O)CC1 occupy?
**Result** upper level

**Query** Which bin, given its inhibition, does COc1ccccc1N1CCN(C(=O)C2CCCO2)CC1 (stereo not drawn) occupy?
**Result** upper level

**Query** Which bin, given its inhibition, does CCOc1ccc(OCCCCN(C)C)cc1 occupy?
**Result** upper level

**Query** Which bin, given its inhibition, does CCc1nc(SCC(=O)NCc2ccco2)c2c3c(sc2n1)CCCC3 occupy?
**Result** upper level

----------
Below: a set of entries, each annotated with reported fluorescence slope.
# TARGET UNDER TEST: Voltage-gated potassium channel subunit beta-2 (Rattus norvegicus)
# METHOD SUMMARY: inhibitors of rat Kvbeta2 reductase activity – biochemical, NADPH fluorescence, primary screen (AID 622);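 also: slope of raw intensity against log time taken from 70 to 1610 s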
# RUN CONDITIONS: recombinant KvBeta, 4-cyanobenzaldehyde reduction, at 10 µM, hits give high values
Activity calls are given as the source filed them.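 How the source made its calls: active means fluorescence slope higher than the sample average by over 3 SD (cut at about -0.22 in these data, passing the limit was not always enough); inactive means the rest.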

**Query** Item O=C1CCCc2c1cc(C(=O)NCCCN1CCOCC1)c(=O)n2-c1ccc(Cl)cc1 has what recorded fluorescence slope?
**Result** -0.546 (inactive)

**Query** Item O=C(COc1ccc(S(=O)(=O)NC2CCCCC2)cc1Cl)NCC1CCCO1 (stereo not drawn) has what recorded fluorescence slope?
**Result** -0.415 (inactive)

**Query** Item Cc1ccc(C)c(NS(=O)(=O)c2ccc(NC(=O)c3ccco3)cc2)c1 has what recorded fluorescence slope?
**Result** -0.335 (inactive)

----------
# TARGET UNDER TEST: Voltage-gated potassium channel subunit beta-2 (Rattus norvegicus) (UniProt P62483)
# METHOD SUMMARY: inhibitors of rat Kvbeta2 reductase activity – biochemical, NADPH fluorescence, primary screen (AID 622);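 also: slope of raw intensity against log time taken from 70 to 1610 s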
# RUN CONDITIONS: recombinant KvBeta, 4-cyanobenzaldehyde reduction, at 10 µM, hits give high values
Below: a set of entries, each annotated with reported fluorescence slope.
I only need the number, thanks.

Answered examples (4):
O=C(c1ccc(Cl)c(F)c1F)N1CCCC1 = -0.276
CC(=O)NC(Cc1ccccc1)C(=O)NC1CCN(C(=O)c2cnccn2)CC1 (stereo not drawn) = -0.48
COc1ccc(-c2noc(COc3ccc(C)c(C)c3)n2)cc1OC = -0.316
CCOc1ccc(NC(=O)CSc2nc3cccnc3n2CC)cc1 = -0.487

**Query** Item COc1cccc(-c2noc(-c3cccs3)n2)c1 has what recorded fluorescence slope?
**Result** -0.619

**Query** Item COc1ccccc1OCCCCNCCO has what recorded fluorescence slope?
**Result** -0.434

**Query** Item COc1ccccc1-n1c(=O)[nH]c2c(C(N)=O)nc(CC(C)C)nc21 has what recorded fluorescence slope?
**Result** -0.58

**Query** Item COC(=O)C(CC(C)C)NC(=O)CSc1nc(-c2ccccc2)c(C#N)c(=O)[nH]1 (stereo not drawn) has what recorded fluorescence slope?
**Result** -0.402
